# Test system: DU-145 prostate
# assayName: NCI tumour cell line growth inhibition, 48 h
experimentalReadout: TGI

Here's what some known entries look like.
1. C1=CC(=[N+]2N=C(c3ccccc3)CC2c2ccccc2)C=CC1=C1SC(c2ccccc2)(c2ccccc2)c2ccccc21 (stereo not given) : > 100 µM
2. O=C1c2ccccc2C(C2c3ccccc3C(=O)c3cc(Br)ccc32)c2ccc(Br)cc21 (stereo not given) : > 100 µM
3. CCNc1nc2c(ncn2C2CC(O)C(COP(=O)(O)O)O2)c(=O)[nH]1 (stereo not given) : > 100 µM
4. CCN(CC)CCOc1ccc2c(c1)C(=O)c1cc(OCCN(CC)CC)ccc1-2 : 81.5 µM

Alright, here's another compound for you.
Short answer on DU-145 prostate for COC(=O)C[C@H](COCc1ccccc1)NC(=O)C[C@H](COCc1ccccc1)NC(=O)OC(C)(C)C , TGI: 44.9 µM
